Provide the recorded inhibition for the entries that follow.
- Tested target: D(1B) dopamine receptor (Homo sapiens) (UniProt P21918)
- Sequence (P21918 whole entry): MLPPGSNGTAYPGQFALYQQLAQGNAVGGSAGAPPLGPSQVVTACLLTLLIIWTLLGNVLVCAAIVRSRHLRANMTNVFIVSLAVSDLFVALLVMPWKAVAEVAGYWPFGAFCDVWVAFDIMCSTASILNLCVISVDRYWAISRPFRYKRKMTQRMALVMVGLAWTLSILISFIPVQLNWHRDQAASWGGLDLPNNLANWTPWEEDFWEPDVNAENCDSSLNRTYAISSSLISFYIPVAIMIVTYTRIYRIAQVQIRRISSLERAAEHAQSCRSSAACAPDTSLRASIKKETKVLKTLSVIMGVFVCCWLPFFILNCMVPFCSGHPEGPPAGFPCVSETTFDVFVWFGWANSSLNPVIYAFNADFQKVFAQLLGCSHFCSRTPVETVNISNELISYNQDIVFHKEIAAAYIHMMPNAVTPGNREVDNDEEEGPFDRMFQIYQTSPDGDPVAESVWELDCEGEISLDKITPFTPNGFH
- Test conditions: Compound concentration 10 µM
- Description: PDSP Primary Binding target: DRD5 - Compounds are tested at 10 uM concentration, plate are incubated at room temperature in the dark for 90 minutes. Reaction are stopped by vacuum filtration onto 0.3% polyethyleneimine soaked filter mats using Filtermate harvester. Scintilation cocktail is then melted onto microwave-dried filters on a hot plate and the radio activity is counted in Microbia counter.
Give bare numbers, in %.

Here's what some known entries look like.
# Compound, Tested target, Observation type, Readout value
data = [
    ("NCCc1cn(S(=O)(=O)c2c(Cl)nc3sccn23)c2ccccc12", "D(1B) dopamine receptor (Homo sapiens) (UniProt P21918)", "inhibition", 38.9),
    ("CN1CCN(c2ccc(Nc3c4ccccc4nc4ccccc34)cc2)CC1", "D(1B) dopamine receptor (Homo sapiens) (UniProt P21918)", "inhibition", 14.1),
    ("CC[C@@H]1CN2C(=O)N(C)c3nc(-c4ccccc4)[nH]c3C2=N1", "D(1B) dopamine receptor (Homo sapiens) (UniProt P21918)", "inhibition", 9.96),
    ("CCCSc1nc(N[C@@H]2C[C@H]2c2ccc(F)c(F)c2)c2nnn([C@@H]3C[C@H](OCCO)[C@@H](O)[C@H]3O)c2n1", "D(1B) dopamine receptor (Homo sapiens) (UniProt P21918)", "inhibition", 2.95),
    ("O=C(O)c1cc(-c2ccc(C3CCNCC3)cc2)c2ccc(-c3ccc(C(F)(F)F)cc3)cc2c1", "D(1B) dopamine receptor (Homo sapiens) (UniProt P21918)", "inhibition", 81),
]

// input: 2 compounds below; output: inhibition for each
1. CC(C)[C@H](CO)Nc1nc(Nc2cccc(Cl)c2)c2ncn(C(C)C)c2n1
2. Cc1cc(C(=O)N2Cc3cnn(C)c3Nc3ccccc32)ccc1CNC(=O)N1CCC[C@H]1C(=S)N1CCCN(C)CC1

OUTPUT:
8.79
11

// input: 7 compounds below; output: inhibition for each
1. Brc1c(NC2=NCCN2)ccc2nccnc12
2. Cc1csc2c(N[C@@H](C)CN3CCN(S(=O)(=O)c4ccc(Cl)c(Cl)c4)CC3)ncnc12
3. Cc1ccccc1N1CCN(S(=O)(=O)C[C@]23CC[C@H](C[C@@H]2NC(=O)[C@@H](N)CCS(C)(=O)=O)C3(C)C)CC1
4. CCCCCNC(=O)NS(=O)(=O)c1cc([N+](=O)[O-])ccc1NC1CCCCC1
5. CN1C2CCC1CC(OC(c1ccc(F)cc1)c1ccc(F)cc1)C2 (stereo not given)
6. CCCCN1CCC(COC(=O)c2cc(Cl)c(N)c3c2OCCO3)CC1
7. O=C(O)COc1cccc(CN(Cc2ccc(-n3cccn3)cc2)S(=O)(=O)c2cccnc2)c1

OUTPUT:
[34.9, 5.96, -6.4, 4.44, 66.6, -0.98, 2.14]

###

- Tested target: 5-hydroxytryptamine receptor 2A (Homo sapiens) (UniProt P28223)
- Sequence (P28223 whole entry): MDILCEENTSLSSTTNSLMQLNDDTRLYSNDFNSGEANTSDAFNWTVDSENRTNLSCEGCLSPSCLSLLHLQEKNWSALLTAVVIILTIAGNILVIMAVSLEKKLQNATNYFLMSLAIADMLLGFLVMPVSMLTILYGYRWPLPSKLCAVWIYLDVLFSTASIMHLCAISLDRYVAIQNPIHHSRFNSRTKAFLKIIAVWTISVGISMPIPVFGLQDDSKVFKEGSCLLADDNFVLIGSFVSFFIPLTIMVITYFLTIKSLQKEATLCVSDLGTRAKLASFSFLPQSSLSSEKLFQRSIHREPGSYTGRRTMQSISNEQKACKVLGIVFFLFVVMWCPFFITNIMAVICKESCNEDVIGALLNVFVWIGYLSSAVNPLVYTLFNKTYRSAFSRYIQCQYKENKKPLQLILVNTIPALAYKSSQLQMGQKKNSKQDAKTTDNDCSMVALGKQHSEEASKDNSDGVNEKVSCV
- Test conditions: Compound concentration 10 µM
- Description: PDSP Primary Binding target: HTR2A - Compounds are tested at 10 uM concentration, plate are incubated at room temperature in the dark for 90 minutes. Reaction are stopped by vacuum filtration onto 0.3% polyethyleneimine soaked filter mats using Filtermate harvester. Scintilation cocktail is then melted onto microwave-dried filters on a hot plate and the radio activity is counted in Microbia counter.
Observation type: inhibition (%)
Answers are plain numbers, in %.

Here's what some known entries look like.
# Compound, Measurement unit, Readout value
data = [
    ("CC1=C2C[C@H]3[C@@H](CC=C4C[C@@H](O)CC[C@@]43C)[C@@H]2CC[C@]12O[C@@H]1C[C@H](C)CN[C@H]1[C@H]2C", "%", 4.16),
    ("CCN(CC)CCCCC1CCN(CC(=O)N2c3ccccc3C(=O)Nc3cccnc32)CC1", "%", 9.83),
    ("COc1ccc(OC(F)(F)F)cc1CN[C@H]1CCCN[C@H]1c1ccccc1", "%", 64.8),
    ("N#Cc1ccc2[nH]cc(CCCCN3CCN(c4ccc5oc(C(N)=O)cc5c4)CC3)c2c1", "%", 43),
    ("N#Cc1ccc(NC(=O)Nc2ccccc2Br)c2nn[nH]c12", "%", -5.61),
    ("Cc1csc2c(N[C@@H](C)CN3CCN(S(=O)(=O)c4ccc(Cl)c(Cl)c4)CC3)ncnc12", "%", 31),
]

// input: 6 compounds below; output: inhibition for each
1. Cc1c(C2=CCN(C(=O)N(C)C(C)C)CC2)nnn1-c1cccnc1F
2. O=c1ccc2ccc(OCCCCN3CCN(c4cccc5sccc45)CC3)cc2[nH]1
3. Cc1ccccc1N1CCN(S(=O)(=O)C[C@]23CC[C@H](C[C@@H]2NC(=O)[C@@H](N)CCS(C)(=O)=O)C3(C)C)CC1
4. CNC[C@H](O)c1cccc(O)c1
5. CC(C)NCC(O)COc1ccc(CCOCC2CC2)cc1 (configuration not stated)
6. c1ccc(N2CCN(Cc3nc4ccccc4[nH]3)CC2)nc1

OUTPUT:
[85.9, 97.1, 1.52, 25.3, 8.23, 6.02]

###

- Tested target: Alpha-2A adrenergic receptor (Homo sapiens) (UniProt P08913)
- Sequence (P08913 whole entry): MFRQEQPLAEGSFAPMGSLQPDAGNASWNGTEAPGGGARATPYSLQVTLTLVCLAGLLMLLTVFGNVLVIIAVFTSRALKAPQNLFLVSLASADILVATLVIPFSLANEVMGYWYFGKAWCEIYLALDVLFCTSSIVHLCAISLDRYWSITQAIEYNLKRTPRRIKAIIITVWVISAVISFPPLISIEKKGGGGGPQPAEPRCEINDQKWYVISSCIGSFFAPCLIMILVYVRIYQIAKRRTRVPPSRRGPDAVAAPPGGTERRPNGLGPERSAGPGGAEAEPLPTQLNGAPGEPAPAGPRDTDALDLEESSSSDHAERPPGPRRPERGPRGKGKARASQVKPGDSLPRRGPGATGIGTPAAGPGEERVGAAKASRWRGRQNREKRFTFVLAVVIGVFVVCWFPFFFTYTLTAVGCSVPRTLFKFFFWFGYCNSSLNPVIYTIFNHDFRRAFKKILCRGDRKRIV
- Test conditions: Compound concentration 10 µM
- Description: PDSP Primary Binding target: ADRA2A - Compounds are tested at 10 uM concentration, plate are incubated at room temperature in the dark for 90 minutes. Reaction are stopped by vacuum filtration onto 0.3% polyethyleneimine soaked filter mats using Filtermate harvester. Scintilation cocktail is then melted onto microwave-dried filters on a hot plate and the radio activity is counted in Microbia counter.
Provide the recorded inhibition for the entries that follow.

# Structure smiles, Tested target, inhibition
rows = [
    ("Cc1ccc(O)c([C@H](CCN(C(C)C)C(C)C)c2ccccc2)c1", "Alpha-2A adrenergic receptor (Homo sapiens) (UniProt P08913)", "20.2%"),
]

// input: 3 compounds below; output: inhibition for each
1. COc1ccc(S(=O)(=O)N2c3ccc(Cl)cc3[C@](O)(c3ccccc3Cl)[C@@H]2C(=O)N2CCC[C@H]2C(N)=O)cc1OC
2. CCCCN(CCCC)C(=O)CN1C[C@@H](c2ccc3c(c2)OCO3)[C@H](C(=O)O)[C@H]1c1ccc(OC)cc1
3. Cc1nc2sccn2c(=O)c1CCN1CCC(=C(c2ccc(F)cc2)c2ccc(F)cc2)CC1

OUTPUT:
12.7%
0.09%
98.8%

###

- Tested target: Alpha-1A adrenergic receptor (Homo sapiens) (UniProt P35348)
- Sequence (P35348 whole entry): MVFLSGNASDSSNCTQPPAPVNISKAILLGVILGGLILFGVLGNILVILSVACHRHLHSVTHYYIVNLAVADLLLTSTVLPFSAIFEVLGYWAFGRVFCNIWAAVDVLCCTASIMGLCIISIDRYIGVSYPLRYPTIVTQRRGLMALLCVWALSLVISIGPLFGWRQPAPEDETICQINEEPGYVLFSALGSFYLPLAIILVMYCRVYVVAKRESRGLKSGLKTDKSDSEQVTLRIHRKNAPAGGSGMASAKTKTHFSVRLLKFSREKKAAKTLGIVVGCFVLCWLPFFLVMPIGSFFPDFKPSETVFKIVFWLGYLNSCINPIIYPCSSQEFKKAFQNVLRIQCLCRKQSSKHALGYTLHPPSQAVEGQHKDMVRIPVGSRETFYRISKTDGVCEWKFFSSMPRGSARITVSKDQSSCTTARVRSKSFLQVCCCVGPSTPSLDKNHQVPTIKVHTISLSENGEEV
- Test conditions: Compound concentration 10 µM
- Description: PDSP Primary Binding target: ADRA1A - Compounds are tested at 10 uM concentration, plate are incubated at room temperature in the dark for 90 minutes. Reaction are stopped by vacuum filtration onto 0.3% polyethyleneimine soaked filter mats using Filtermate harvester. Scintilation cocktail is then melted onto microwave-dried filters on a hot plate and the radio activity is counted in Microbia counter.
Provide the recorded inhibition for the entries that follow.

Here's what some known entries look like.
# Compound, Observation type, Readout value
data = [
    ("S=C(NCCCc1c[nH]cn1)NCCCN(Cc1ccc(Cl)c(Cl)c1)c1ccc(Br)cn1", "inhibition", "84.5%"),
    ("O=C(O)C1CN(Cc2ccc(OCc3ccc(Cl)c(Cl)c3)cc2)C1", "inhibition", "-0.54%"),
    ("COc1ccccc1N1CCN(CCCCNC(=O)c2ccc3ccccc3c2)CC1", "inhibition", "98.8%"),
    ("CC1(C)SSC(C)(C)[C@@H](NC(=O)[C@@H](N)Cc2ccc(O)cc2)C(=O)NCC(=O)N[C@@H](Cc2ccccc2)C(=O)N[C@H]1C(=O)O", "inhibition", "-6.07%"),
    ("CN1C2CCC1CC(OC(c1ccc(F)cc1)c1ccc(F)cc1)C2 (centres undefined)", "inhibition", "98.7%"),
]

// input: 4 compounds below; output: inhibition for each
1. OC1(c2ccc(Cl)cc2)CCN(Cc2c[nH]c3ccccc23)CC1
2. COC(=O)[C@H]1[C@H]2C[C@H]3c4[nH]c5ccccc5c4CCN3C[C@H]2CC[C@@H]1O
3. OC[C@H]1O[C@@H](n2cnc3c(NC4CCCC4)ncnc32)[C@H](O)[C@@H]1O
4. N#Cc1cccc(C(=O)Nc2cc(-c3ccccc3)nn2-c2ccccc2)c1

OUTPUT:
1. 66.1%
2. 66.2%
3. -0.37%
4. 4.85%

###

Provide the recorded inhibition for the entries that follow.
- Tested target: Kappa-type opioid receptor (Homo sapiens) (UniProt P41145)
- Sequence (P41145 whole entry): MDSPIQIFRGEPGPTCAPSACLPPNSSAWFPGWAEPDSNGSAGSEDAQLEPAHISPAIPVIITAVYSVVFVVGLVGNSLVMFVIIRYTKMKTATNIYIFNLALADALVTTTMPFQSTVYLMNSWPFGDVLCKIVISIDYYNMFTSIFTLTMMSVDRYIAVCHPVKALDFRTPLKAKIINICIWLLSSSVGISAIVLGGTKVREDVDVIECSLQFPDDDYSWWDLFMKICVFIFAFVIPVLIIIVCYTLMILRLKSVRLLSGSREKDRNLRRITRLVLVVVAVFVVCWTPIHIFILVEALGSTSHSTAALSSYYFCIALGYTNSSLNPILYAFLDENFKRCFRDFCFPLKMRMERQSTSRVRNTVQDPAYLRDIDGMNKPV
- Test conditions: Compound concentration 10 µM
- Description: PDSP Primary Binding target: OPRK1 - Compounds are tested at 10 uM concentration, plate are incubated at room temperature in the dark for 90 minutes. Reaction are stopped by vacuum filtration onto 0.3% polyethyleneimine soaked filter mats using Filtermate harvester. Scintilation cocktail is then melted onto microwave-dried filters on a hot plate and the radio activity is counted in Microbia counter.
Give bare numbers, in %.

Here's what some known entries look like.
# Compound, Measurement unit, Readout value
measured = [
    ("N#Cc1ccc(NC(=O)Nc2ccccc2Br)c2nn[nH]c12", "%", 25.6),
    ("Cc1c(C(=O)NC2CCCCC2)sc2nc3ccc(N)cc3n12", "%", 17.5),
    ("COc1ccc(C2(O)OC(=O)C(c3ccc4c(c3)OCO4)=C2Cc2cc(OC)c(OC)c(OC)c2)cc1 (stereo not given)", "%", 9.13),
    ("COc1ccc(Br)cc1S(=O)(=O)NC(=O)/C=C/c1ccccc1Cc1ccc2ccccc2c1", "%", 1.49),
]

In the following, a different compound is considered.
Form: compound = "OC[C@H]1O[C@@H](n2cnc3c(NC4CCCC4)ncnc32)[C@H](O)[C@@H]1O" ; inhibition = -5.12

###

- Tested target: D(3) dopamine receptor (Homo sapiens) (UniProt P35462)
- Sequence (P35462 whole entry): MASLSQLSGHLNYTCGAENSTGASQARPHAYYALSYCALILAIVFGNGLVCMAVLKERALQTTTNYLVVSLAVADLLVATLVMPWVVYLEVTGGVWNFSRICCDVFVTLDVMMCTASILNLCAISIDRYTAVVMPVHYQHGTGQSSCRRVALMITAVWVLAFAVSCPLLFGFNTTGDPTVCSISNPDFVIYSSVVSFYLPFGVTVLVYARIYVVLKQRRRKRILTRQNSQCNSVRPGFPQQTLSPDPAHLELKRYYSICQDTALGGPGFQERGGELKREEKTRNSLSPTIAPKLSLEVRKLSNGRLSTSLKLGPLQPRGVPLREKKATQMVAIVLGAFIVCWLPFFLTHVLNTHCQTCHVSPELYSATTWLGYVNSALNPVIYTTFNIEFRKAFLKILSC
- Test conditions: Compound concentration 10 µM; call rule not given here
Assign a class; possible classes are yes (active), no (inactive)

A selection of reference data follows.
# Compound, Tested target, Assigned label
measured = [
    ("O=C(O)c1cc(-c2ccc(C3CCNCC3)cc2)c2ccc(-c3ccc(C(F)(F)F)cc3)cc2c1", "D(3) dopamine receptor (Homo sapiens) (UniProt P35462)", "no"),
    ("CCCCc1nc(Cl)c(CO)n1Cc1ccc(-c2ccccc2-c2nnn[nH]2)cc1", "D(3) dopamine receptor (Homo sapiens) (UniProt P35462)", "no"),
    ("Cc1cc(C)c(N)c(C#Cc2cccc(F)c2)n1", "D(3) dopamine receptor (Homo sapiens) (UniProt P35462)", "no"),
    ("CC(C)(C(=O)O)c1ccc(C(O)CCCN2CCC(C(O)(c3ccccc3)c3ccccc3)CC2)cc1 (stereo not given)", "D(3) dopamine receptor (Homo sapiens) (UniProt P35462)", "yes"),
    ("CN(C)C(=O)C(CCN1CCC(O)(c2ccc(Cl)cc2)CC1)(c1ccccc1)c1ccccc1", "D(3) dopamine receptor (Homo sapiens) (UniProt P35462)", "no"),
    ("COC(=O)[C@H]1[C@H]2C[C@H]3c4[nH]c5ccccc5c4CCN3C[C@H]2CC[C@@H]1O", "D(3) dopamine receptor (Homo sapiens) (UniProt P35462)", "no"),
    ("OCc1cc(C(O)CNCCCCCCOCCCCc2ccccc2)ccc1O (stereo not given)", "D(3) dopamine receptor (Homo sapiens) (UniProt P35462)", "yes"),
    ("Clc1cccc(Cl)c1NC1=NCCN1", "D(3) dopamine receptor (Homo sapiens) (UniProt P35462)", "no"),
]

Next:
INPUT: Please let me know the test result on file for "COc1ccnc(N2CCC3(CCCN(Cc4c[nH]c5ccccc45)C3=O)CC2)n1" .
OUTPUT: no
